# TARGET_OF_ASSAY: human AXL cytoplasmic domain (Homo sapiens, UniProt P30530)
# Construct: human AXL cytoplasmic domain (Thermo Fisher A31515); purchased Thermo Fisher A31515
# Sequence (P30530 473-894 limits assumed): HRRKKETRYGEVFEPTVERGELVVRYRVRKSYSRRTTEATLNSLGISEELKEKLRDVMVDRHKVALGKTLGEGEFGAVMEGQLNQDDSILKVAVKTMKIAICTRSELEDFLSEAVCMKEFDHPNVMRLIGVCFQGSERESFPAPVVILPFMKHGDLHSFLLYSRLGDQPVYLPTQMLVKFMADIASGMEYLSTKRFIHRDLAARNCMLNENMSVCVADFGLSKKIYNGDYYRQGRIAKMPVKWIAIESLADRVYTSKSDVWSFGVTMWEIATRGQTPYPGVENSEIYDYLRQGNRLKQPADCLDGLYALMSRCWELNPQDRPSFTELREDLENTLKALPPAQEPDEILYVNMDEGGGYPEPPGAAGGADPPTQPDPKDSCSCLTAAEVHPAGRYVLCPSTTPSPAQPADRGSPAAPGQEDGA
# TEST_PROTOCOL: Assay 1b AXL HTRF KinEASE-TK assay
# Format: biochemical
EXPERIMENTAL_ENDPOINT: IC50 (nM)
Answers are plain numbers, in nM.

Value sought for every listed compound: IC50.
1. CC(C)n1cc(C(=O)Nc2ccc(Oc3ccnc4cnc(C(=O)NC5CCN(C)CC5)cc34)cc2)c(=O)n(-c2cc(F)cc(F)c2)c1=O
2. CN1CCC(NC(=O)c2cc3c(Oc4ccc(NC(=O)c5cccn(-c6ccccc6)c5=O)nc4)ccnc3cn2)CC1
3. O=C(Nc1ccc(Oc2ccnc3cnc(N4CCNCC4)cc23)cc1)c1c[nH]cc(-c2ccc(F)cc2)c1=O
4. CC(C)n1cc(C(=O)Nc2ccc(Oc3ccnc4cnc(N5CCNCC5)cc34)cc2)c(=O)n(-c2ccc(F)cc2)c1=O
5. CN1CCC(C(=O)Nc2cc3c(Oc4ccc(NC(=O)c5cccn(-c6ccc(F)cc6)c5=O)nc4)ccnc3cn2)C1 (stereo not drawn)

output:
[13, 60, 36, 5, 34]

----------
# TARGET_OF_ASSAY: recombinant human MERTK expressed in live cells (HEK 293, MERTK-Nanoluc fusion vector) (Homo sapiens, UniProt Q12866)
# Construct: host or cells: HEK 293
# Sequence (Q12866 21-999): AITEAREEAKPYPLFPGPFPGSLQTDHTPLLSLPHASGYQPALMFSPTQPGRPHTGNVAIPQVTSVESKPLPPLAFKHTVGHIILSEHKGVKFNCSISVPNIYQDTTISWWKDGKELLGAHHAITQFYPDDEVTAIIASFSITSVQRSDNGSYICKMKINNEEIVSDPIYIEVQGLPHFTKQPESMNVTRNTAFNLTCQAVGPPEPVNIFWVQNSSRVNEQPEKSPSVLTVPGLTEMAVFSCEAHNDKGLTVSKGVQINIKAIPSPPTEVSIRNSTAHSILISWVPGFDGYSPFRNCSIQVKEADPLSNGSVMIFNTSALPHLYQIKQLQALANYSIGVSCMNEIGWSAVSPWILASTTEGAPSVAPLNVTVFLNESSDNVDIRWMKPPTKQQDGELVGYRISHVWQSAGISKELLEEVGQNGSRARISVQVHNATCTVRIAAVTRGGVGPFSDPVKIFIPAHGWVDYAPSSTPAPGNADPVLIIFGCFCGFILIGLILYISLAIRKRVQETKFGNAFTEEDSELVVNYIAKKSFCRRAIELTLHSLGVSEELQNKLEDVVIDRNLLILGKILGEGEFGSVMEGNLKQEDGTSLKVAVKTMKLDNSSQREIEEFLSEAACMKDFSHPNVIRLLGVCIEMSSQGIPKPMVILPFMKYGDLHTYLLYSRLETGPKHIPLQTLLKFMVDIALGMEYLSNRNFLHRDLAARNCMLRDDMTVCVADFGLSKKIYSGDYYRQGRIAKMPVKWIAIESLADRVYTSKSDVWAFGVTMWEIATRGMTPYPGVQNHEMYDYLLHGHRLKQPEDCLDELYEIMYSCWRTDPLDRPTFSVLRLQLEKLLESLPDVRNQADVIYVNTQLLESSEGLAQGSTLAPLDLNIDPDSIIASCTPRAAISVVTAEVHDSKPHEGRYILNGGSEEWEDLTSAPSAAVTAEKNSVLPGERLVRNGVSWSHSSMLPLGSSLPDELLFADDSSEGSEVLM
# TEST_PROTOCOL: Assay 2 MERTK cellular target engagement (NanoBRET TE) assay
# Format: cell-based
EXPERIMENTAL_ENDPOINT: IC50

IC50 recorded for this molecule, Cc1cc(NC(=O)c2cccn(-c3ccccc3)c2=O)ccc1Oc1ccnc2cnc(N3CCNCC3)cc12 , is 244 nM

----------
# TARGET_OF_ASSAY: Ba/F3 Pro B-cell line expressing TEL-human Tyro3 fusion domain (Homo sapiens)
# Sequence (Q06418 518-790 limits assumed): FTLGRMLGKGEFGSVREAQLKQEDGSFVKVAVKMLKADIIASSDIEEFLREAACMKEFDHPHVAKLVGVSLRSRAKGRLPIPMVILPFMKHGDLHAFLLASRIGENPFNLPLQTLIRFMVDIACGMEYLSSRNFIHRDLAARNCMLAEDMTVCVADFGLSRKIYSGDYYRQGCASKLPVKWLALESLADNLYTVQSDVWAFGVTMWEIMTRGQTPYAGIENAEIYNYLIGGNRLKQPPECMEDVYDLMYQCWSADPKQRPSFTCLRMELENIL
# EXPERIMENTAL_CONDITIONS: cell survival, 48 h, CellTiter-Glo
EXPERIMENTAL_ENDPOINT: pIC50
Give bare numbers, as −log10 of the molar value.

COMPOUND	TARGET_OF_ASSAY	pIC50
CN1CCC(C(=O)Nc2cc3c(Oc4ccc(NC(=O)c5cccn(-c6ccc(F)cc6)c5=O)nc4)ccnc3cn2)CC1 [Example 18.1]	Ba/F3 Pro B-cell line expressing TEL-human Tyro3 fusion domain (Homo sapiens)	6.60

Value sought for every listed compound: pIC50.
1. CN1CCC(C(=O)Nc2cc3c(Oc4ccc(NC(=O)c5cccn(-c6ccc(F)cc6)c5=O)nc4)ccnc3cn2)C1 (centres unmarked) [Example 18]
2. O=C(Nc1ccc(Oc2ccnc3cnc(N4CCN(C5COC5)CC4)cc23)cn1)c1cccn(-c2ccc(F)cc2)c1=O [Example 10.2]
3. CC(C)n1cc(C(=O)Nc2ccc(Oc3ccnc4cnc(C(=O)NCCN(C)C)cc34)cn2)c(=O)n(-c2ccc(F)cc2)c1=O [Example 27.3]

output:
1. 6.78
2. 6.40
3. 6.20

----------
# TARGET_OF_ASSAY: Ba/F3 Pro B-cell line expressing BCR-human AXL kinase domain fusion protein (Homo sapiens, UniProt P30530)
# Construct: P11274 (Breakpoint cluster region protein)
# Sequence (P30530 536-807 limits assumed): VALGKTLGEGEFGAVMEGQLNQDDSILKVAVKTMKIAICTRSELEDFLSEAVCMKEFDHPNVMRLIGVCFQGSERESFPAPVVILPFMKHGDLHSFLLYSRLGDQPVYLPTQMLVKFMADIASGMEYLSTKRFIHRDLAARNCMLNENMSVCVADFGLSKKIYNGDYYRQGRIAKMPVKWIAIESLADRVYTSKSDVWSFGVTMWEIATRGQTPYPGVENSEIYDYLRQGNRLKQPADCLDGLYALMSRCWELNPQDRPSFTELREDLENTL
# TEST_PROTOCOL: Assay 5 Ba/F3 cell survival assay, BCR-Axl
# EXPERIMENTAL_CONDITIONS: read-out: BCR-Axl Ba/F3 IC50, 48 h, CellTiter-Glo
EXPERIMENTAL_ENDPOINT: pIC50
One number for each entry, as −log10 of the molar value.

Examples from the recorded data:
COMPOUND	pIC50
Cc1nc(NC(=O)c2cccn(-c3ccc(F)cc3)c2=O)ccc1Oc1ccnc2cnc(C(=O)NC3CCN(C)CC3)cc12 [Example 26]	7.08
CC(C)n1cc(C(=O)Nc2ccc(Oc3ccnc4cnc(C(=O)NC5CC6CCC(C5)N6C)cc34)cn2)c(=O)n(-c2ccc(F)cc2)c1=O (stereo not shown) [Example 27.2]	7.89
O=C(Nc1ccc(Oc2ccnc3cnc(N4CCN(C5COC5)CC4)cc23)cn1)c1ccnn(-c2ccc(F)cc2)c1=O [Example 20]	7.80
Cc1cc(NC(=O)c2cccn(-c3ccccc3)c2=O)ccc1Oc1ccnc2cnc(C(=O)NC3CCN(C)CC3)cc12 [Example 34]	7.14
CC(C)n1cc(C(=O)Nc2ccc(Oc3ccnc4cnc(N5CCNCC5)cc34)cc2)c(=O)n(-c2ccc(F)cn2)c1=O [Example 12.4]	7.92

Value sought for every listed compound: pIC50.
1. CN1CCC(Oc2cc3c(Oc4ccc(NC(=O)c5cccn(-c6ccc(F)cc6)c5=O)nc4)ccnc3cn2)CC1 [Example 24]
2. CC(C)n1cc(C(=O)Nc2ccc(Oc3ccnc4cnc(C(=O)NCCN(C)C)cc34)cn2)c(=O)n(-c2ccc(F)cc2)c1=O [Example 27.3]
3. CN1CCC(c2cc3c(Oc4ccc(NC(=O)c5cccn(-c6ccc(F)cc6)c5=O)nc4)ccnc3cn2)CC1 [Example 16]
4. CC(C)(C)OC(=O)N1CCC(c2cc3c(Oc4ccc(NC(=O)c5cccn(-c6ccc(F)cc6)c5=O)nc4)ccnc3cn2)C1 (stereo not shown) [Example 16.1]

output:
[8.22, 7.68, 7.66, 7.12]

Value sought for every listed compound: pIC50.
1. CC(C)n1cc(C(=O)Nc2ccc(Oc3ccnc4cnc(C(=O)NC5CCN(C)CC5)cc34)cc2)c(=O)n(-c2cc(F)cc(F)c2)c1=O [Example 9.1]
2. O=C(Nc1ccc(Oc2ccnc3cnc(C4=CCN(C5COC5)CC4)cc23)cn1)c1cccn(-c2ccc(F)cc2)c1=O [Example 16.2]
3. C[C@H](CO)n1cc(C(=O)Nc2ccc(Oc3ccnc4cnc(C(=O)NC5CCN(C)CC5)cc34)cc2)c(=O)n(-c2ccc(F)cc2)c1=O [Example 14]
4. Cn1cc(C(=O)Nc2ccc(Oc3ccnc4cnc(N5CCNCC5)cc34)cc2)c(=O)c(-c2ccc(F)cc2)c1 [Example 13.1]

output:
1: 7.60; 2: 7.82; 3: 8.15; 4: 7.66

----------
# TARGET_OF_ASSAY: Ba/F3 Pro B-cell line expressing TEL-human Tyro3 fusion domain (Homo sapiens)
# EXPERIMENTAL_CONDITIONS: cell survival, 48 h, CellTiter-Glo
EXPERIMENTAL_ENDPOINT: IC50 (nM)
One number for each entry, in nM.

STRUCTURE_STRING	TARGET_OF_ASSAY	MEASUREMENT_UNIT	IC50
CC(C)n1cc(C(=O)Nc2ccc(Oc3ccnc4cnc(N5CCN(C6COC6)CC5)cc34)cn2)c(=O)n(-c2ccc(F)cc2)c1=O	Ba/F3 Pro B-cell line expressing TEL-human Tyro3 fusion domain (Homo sapiens)	nM	452
CC(C)n1cc(C(=O)Nc2ccc(Oc3ccnc4cnc(C5CCN(C)CC5)cc34)cn2)c(=O)c(-c2ccc(F)cc2)c1	Ba/F3 Pro B-cell line expressing TEL-human Tyro3 fusion domain (Homo sapiens)	nM	429
CC(C)n1cc(C(=O)Nc2ccc(Oc3ccnc4cnc(N5CCNCC5)cc34)cc2)c(=O)n(-c2ccc(F)cc2)c1=O	Ba/F3 Pro B-cell line expressing TEL-human Tyro3 fusion domain (Homo sapiens)	nM	428

Value sought for every listed compound: IC50.
1. O=C(Nc1ccc(Oc2ccnc3cnc(N4CCNCC4)cc23)cc1)c1cn(C2CC2)c(=O)n(-c2ccc(F)cc2)c1=O
2. CN1CCC(c2cc3c(Oc4ccc(NC(=O)c5cccn(-c6ccc(F)cc6)c5=O)nc4)ccnc3cn2)CC1
3. CC(C)n1cc(C(=O)Nc2ccc(Oc3ccnc4cnc(N5CCNCC5)cc34)cc2)c(=O)n(-c2ccc(F)cn2)c1=O
4. C[C@H](CO)n1cc(C(=O)Nc2ccc(Oc3ccnc4cnc(C(=O)NC5CCN(C)CC5)cc34)cc2)c(=O)n(-c2ccc(F)cc2)c1=O

output:
873
931
313
592

----------
# TARGET_OF_ASSAY: human AXL cytoplasmic domain (Homo sapiens, UniProt P30530)
# Construct: human AXL cytoplasmic domain (Thermo Fisher A31515); purchased Thermo Fisher A31515
# TEST_PROTOCOL: Assay 1b AXL HTRF KinEASE-TK assay
# Type: biochemical
EXPERIMENTAL_ENDPOINT: log10 of IC50 (log10 of the value in nM)
Please be aware that the numbers have been log10-transformed from IC50 in nM.

COMPOUND	RESULT_NUMBER
CC(C)(C)OC(=O)N1CCC(c2cc3c(Oc4ccc(NC(=O)c5cccn(-c6ccc(F)cc6)c5=O)nc4)ccnc3cn2)C1 (stereo not shown) [Example 16.1]	1.43
CC(C)n1cc(C(=O)Nc2ccc(Oc3ccnc4cnc(C(=O)NC5CCN(C)CC5)cc34)cc2)c(=O)n(-c2ccc(F)cc2)c1=O [Example 8.2]	1.00
CN1CCC(Oc2cc3c(Oc4ccc(NC(=O)c5cccn(-c6ccc(F)cc6)c5=O)nc4)ccnc3cn2)CC1 [Example 24]	1.32
CC(C)n1cc(C(=O)Nc2ccc(Oc3ccnc4cnc(C(=O)NC5CCN(C(=O)OC(C)(C)C)CC5)cc34)cn2)c(=O)n(-c2ccc(F)cc2)c1=O [Example 27.1]	0.48
O=C(Nc1ccc(Oc2ccnc3cnc(N4CCNCC4)cc23)cn1)c1cccn(-c2ccccc2)c1=O [Example 32]	2.49
CC(C)n1cc(C(=O)Nc2ccc(Oc3ccnc4cnc(C5CCN(C)CC5)cc34)cn2)c(=O)c(-c2ccc(F)cc2)c1 [Example 23]	1.08

Let's switch to this compound now.
log10 of IC50 recorded for this compound, CN1CCN(c2cc3c(Oc4ccc(NC(=O)c5cccn(-c6ccc(F)cc6)c5=O)nc4)ccnc3cn2)CC1 [Example 10.1] , is 1.15
